Biological target: JAK1 (Homo sapiens, UniProt P23458)
Sequence (P23458 whole entry): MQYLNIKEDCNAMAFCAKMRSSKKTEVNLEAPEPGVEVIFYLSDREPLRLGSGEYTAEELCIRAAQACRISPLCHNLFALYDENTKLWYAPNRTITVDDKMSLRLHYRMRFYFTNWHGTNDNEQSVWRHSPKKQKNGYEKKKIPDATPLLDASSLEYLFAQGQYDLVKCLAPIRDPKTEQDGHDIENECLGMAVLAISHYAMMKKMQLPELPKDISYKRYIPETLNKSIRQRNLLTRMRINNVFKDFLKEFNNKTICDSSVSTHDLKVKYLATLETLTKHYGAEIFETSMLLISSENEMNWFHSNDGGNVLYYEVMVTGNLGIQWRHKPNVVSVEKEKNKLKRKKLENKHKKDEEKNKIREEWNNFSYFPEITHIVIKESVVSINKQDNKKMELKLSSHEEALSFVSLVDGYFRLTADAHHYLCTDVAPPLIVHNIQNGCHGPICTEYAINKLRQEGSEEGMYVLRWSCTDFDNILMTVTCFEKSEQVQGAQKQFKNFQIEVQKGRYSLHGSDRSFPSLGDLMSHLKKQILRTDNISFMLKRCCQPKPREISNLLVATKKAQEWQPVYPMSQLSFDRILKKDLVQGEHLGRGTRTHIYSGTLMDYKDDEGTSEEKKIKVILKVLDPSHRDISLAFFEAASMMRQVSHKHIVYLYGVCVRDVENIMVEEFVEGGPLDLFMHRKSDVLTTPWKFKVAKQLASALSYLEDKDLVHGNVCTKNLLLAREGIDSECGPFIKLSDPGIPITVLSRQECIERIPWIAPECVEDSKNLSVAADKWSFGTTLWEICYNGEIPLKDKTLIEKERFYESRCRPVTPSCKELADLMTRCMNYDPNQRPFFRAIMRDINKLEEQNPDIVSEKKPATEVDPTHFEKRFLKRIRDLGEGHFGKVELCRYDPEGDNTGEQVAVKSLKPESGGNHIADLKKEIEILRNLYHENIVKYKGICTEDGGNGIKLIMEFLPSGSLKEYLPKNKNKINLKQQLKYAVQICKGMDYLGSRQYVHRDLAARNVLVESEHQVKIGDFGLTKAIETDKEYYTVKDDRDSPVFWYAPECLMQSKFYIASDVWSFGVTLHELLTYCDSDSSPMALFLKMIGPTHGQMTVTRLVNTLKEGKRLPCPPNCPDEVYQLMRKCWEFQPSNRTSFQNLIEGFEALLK
Assay: Kinase selectivity, inhibition rate at 10 nM (caliper mobility shift assay)
Assay type: biochemical
Settings: compound at 10 nM
Description: Compounds were tested at a concentration of 10 nM with detection in duplicate wells, or tested at 10 concentrations starting from 10 µM with three-fold serial dilutions, with detection in duplicate wells. The inhibitory effect of the compounds on the activity of CDK9 protein kinase was detected by the caliper mobility shift assay method. […] The conversion rate was read with Caliper EZ Reader. […]
inhibition at 0.01 µM reference

Sample answers from the record:
- N#Cc1cnc2nc1NCCCCCNCc1cccc(c1)N2 [Compound 15]: < 25%
- Cc1ccc2cc1-c1nc(ncc1Cl)Nc1cccc(c1)NC/C=C\CN2 [Compound 12]: < 25%
- Clc1cnc2nc1OCCCCCNCc1cccc(c1)N2 [Compound 18]: < 25%

Okay, now this compound:
Any idea what inhibition at 0.01 µM was measured for Clc1cnc2nc1NCCCCCNCc1cccc(c1)N2 [Compound 8] ?
< 25%

----------
inhibition at 0.01 µM reference
target: UniProt P50750; experiment: Inhibition of CDK9 kinase activity (caliper mobility shift assay); format: biochemical; conditions: compound at 10 nM, selectivity panel Table 3; read-out: Inhibition rate CDK9

Any idea what inhibition at 0.01 µM was measured for Cc1ccc2cc1-c1nc(ncc1Cl)Nc1cccc(c1)NC/C=C\CN2 [Compound 12] ?
> 50%

Any idea what inhibition at 0.01 µM was measured for N#Cc1cnc2nc1NCCCCCNCc1cccc(c1)N2 [Compound 15] ?
25 to 49%

Any idea what inhibition at 0.01 µM was measured for Clc1cnc2nc1NCCCCCNCc1cccc(c1)N2 [Compound 8] ?
> 50%

Any idea what inhibition at 0.01 µM was measured for Clc1cnc2nc1OCCCCCNCc1cccc(c1)N2 [Compound 18] ?
> 50%

----------
inhibition at 0.01 µM reference
biological target: CDK9 (Homo sapiens, UniProt P50750); assay: Inhibition of CDK9 kinase activity (caliper mobility shift assay); type: biochemical; conditions: compound at 10 nM; read-out: Inhibition rate on CDK9 kinase activity
Sequence (P50750 whole entry): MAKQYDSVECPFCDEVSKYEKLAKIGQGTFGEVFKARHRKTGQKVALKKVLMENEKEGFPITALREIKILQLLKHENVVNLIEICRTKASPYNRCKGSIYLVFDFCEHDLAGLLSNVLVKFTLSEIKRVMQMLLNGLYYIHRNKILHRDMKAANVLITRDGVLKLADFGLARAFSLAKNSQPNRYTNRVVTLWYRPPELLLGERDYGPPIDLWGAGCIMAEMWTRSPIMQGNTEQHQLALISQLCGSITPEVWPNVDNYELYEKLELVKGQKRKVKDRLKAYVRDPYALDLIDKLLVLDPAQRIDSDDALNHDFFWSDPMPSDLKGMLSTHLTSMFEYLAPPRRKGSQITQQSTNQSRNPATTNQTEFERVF
Sequence (O60563 whole entry partner): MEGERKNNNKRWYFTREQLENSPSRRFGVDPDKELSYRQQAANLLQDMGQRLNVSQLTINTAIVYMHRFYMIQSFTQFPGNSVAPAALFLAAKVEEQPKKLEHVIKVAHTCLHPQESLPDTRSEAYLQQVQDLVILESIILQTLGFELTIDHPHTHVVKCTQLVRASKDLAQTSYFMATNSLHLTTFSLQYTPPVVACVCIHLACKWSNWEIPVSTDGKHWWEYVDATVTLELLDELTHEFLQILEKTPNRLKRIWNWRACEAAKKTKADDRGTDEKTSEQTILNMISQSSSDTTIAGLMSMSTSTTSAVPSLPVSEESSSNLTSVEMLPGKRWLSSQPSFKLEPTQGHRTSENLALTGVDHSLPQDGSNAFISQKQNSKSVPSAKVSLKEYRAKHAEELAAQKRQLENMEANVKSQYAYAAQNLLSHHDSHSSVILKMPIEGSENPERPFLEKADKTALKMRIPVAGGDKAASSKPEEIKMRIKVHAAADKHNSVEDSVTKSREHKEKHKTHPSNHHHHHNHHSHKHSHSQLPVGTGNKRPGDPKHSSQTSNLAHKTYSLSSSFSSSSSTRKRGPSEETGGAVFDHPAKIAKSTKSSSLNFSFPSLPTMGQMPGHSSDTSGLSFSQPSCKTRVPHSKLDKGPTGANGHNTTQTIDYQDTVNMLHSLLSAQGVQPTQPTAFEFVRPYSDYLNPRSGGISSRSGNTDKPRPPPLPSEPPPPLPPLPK

Sample answers from the record:
* Clc1cnc2nc1NCCCCCNCc1cccc(c1)N2 | > 50%
* Cc1nc2sc1-c1nc(ncc1F)Nc1cccc(c1)NCCOCCN2 | 25 to 49%
* Cc1ccc2cc1-c1nc(ncc1Cl)Nc1cccc(c1)NC/C=C\CN2 | > 50%
* N#Cc1cnc2nc1NCCCCCNCc1cccc(c1)N2 | 25 to 49%
* CN1CCCCCNc2nc(ncc2Cl)Nc2cccc(c2)C1 | 25 to 49%

Any idea what inhibition at 0.01 µM was measured for `Clc1cnc2nc1OCCCCCNCc1cccc(c1)N2` ?
> 50%
